experiment: Vorinostat serum pharmacokinetics, day 4 of cycle 1; assay type: in vivo, human; details: human, serum, po, 500 mg
MEASURED ENDPOINT: Tmax (h)

compound="O=C(CCCCCCC(=O)Nc1ccccc1)NO [vorinostat, suberoylanilide hydroxamic acid]" assay_value=3.8

----------
experiment: Vorinostat serum pharmacokinetics, day 4 of cycle 1; type: in vivo, human; details: human, serum, po, 100 mg
MEASURED ENDPOINT: half-life (h)

compound="O=C(CCCCCCC(=O)Nc1ccccc1)NO [vorinostat, suberoylanilide hydroxamic acid]" assay_value=1.3

----------
test: Vorinostat serum pharmacokinetics, day 4 of cycle 1; type: in vivo, human; conditions: human, serum, po, 200 mg
MEASURED ENDPOINT: Tmax (h)

molecule="O=C(CCCCCCC(=O)Nc1ccccc1)NO [vorinostat, suberoylanilide hydroxamic acid]" assay_value=1.3
